test system: Human immunodeficiency virus 1; assay: Ratio of EC50 for HIV1 mutant strain 1 to EC50 for wild type HIV1; type: functional
quantity: Ratio EC50

compound | quantity | number
Cc1c(O)cccc1C(=O)N[C@@H](CSc1ccccc1)[C@H](O)CN1C[C@H]2CCCC[C@H]2C[C@H]1C(=O)NC(C)(C)C | Ratio EC50 | 82
COc1cccc(C[C@H](NC(=O)c2cccc(N)c2Cl)[C@H](O)C(=O)N2CSC(C)(C)[C@H]2C(=O)NCc2c(C)cccc2C)c1 | Ratio EC50 | 27
COC(=O)N[C@H](C(=O)N[C@@H](Cc1ccccc1)[C@@H](O)CN(Cc1ccc(-c2ccccn2)cc1)NC(=O)[C@@H](NC(=O)OC)C(C)(C)C)C(C)(C)C [ATAZANAVIR] | Ratio EC50 | 62
CC(C)CN(C[C@@H](O)[C@H](Cc1ccccc1)NC(=O)O[C@H]1CCOC1)S(=O)(=O)c1ccc(N)cc1 | Ratio EC50 | 7

----------
Overview of reported Ratio EC50 across a group of molecules:
test system: Human immunodeficiency virus 1; experiment: Ratio of EC50 for HIV1 mutant strain 3 to EC50 for wild type HIV1; format: functional
quantity: Ratio EC50

molecule | systemUnderTest | quantity | number
CC(C)CN(C[C@@H](O)[C@H](Cc1ccccc1)NC(=O)O[C@H]1CCOC1)S(=O)(=O)c1ccc(N)cc1 | Human immunodeficiency virus 1 | Ratio EC50 | 10
Cc1c(O)cccc1C(=O)N[C@@H](CSc1ccccc1)[C@H](O)CN1C[C@H]2CCCC[C@H]2C[C@H]1C(=O)NC(C)(C)C | Human immunodeficiency virus 1 | Ratio EC50 | 75
COC(=O)N[C@H](C(=O)N[C@@H](Cc1ccccc1)[C@@H](O)CN(Cc1ccc(-c2ccccn2)cc1)NC(=O)[C@@H](NC(=O)OC)C(C)(C)C)C(C)(C)C [ATAZANAVIR] | Human immunodeficiency virus 1 | Ratio EC50 | 16
COc1cccc(C[C@H](NC(=O)c2cccc(N)c2Cl)[C@H](O)C(=O)N2CSC(C)(C)[C@H]2C(=O)NCc2c(C)cccc2C)c1 | Human immunodeficiency virus 1 | Ratio EC50 | 22

----------
assay: Metabolic stability in human liver microsomes assessed as compound remaining at 5 uM in presence of NADPH by RP-HPLC; type: ADME, Microsome; conditions: read-out: Stability
Overview of reported remaining at 5 µM across a group of compounds:

smilesString | remaining at 5 µM
COc1ccc(C[C@H](NC(=O)c2cccc(N)c2Cl)[C@H](O)C(=O)N2CSC(C)(C)[C@H]2C(=O)NCc2ccccc2C)cc1 | 60%
COC(=O)N[C@H](C(=O)N[C@@H](Cc1ccccc1)[C@@H](O)CN(Cc1ccc(-c2ccccn2)cc1)NC(=O)[C@@H](NC(=O)OC)C(C)(C)C)C(C)(C)C | 83%
CCOc1ccc(C[C@H](NC(=O)c2cccc(N)c2Cl)[C@H](O)C(=O)N2CSC(C)(C)[C@H]2C(=O)NCc2c(C)cccc2C)cc1 | 54%
Cc1ccccc1CNC(=O)[C@H]1N(C(=O)[C@@H](O)[C@H](Cc2ccccc2)NC(=O)c2cccc(N)c2Cl)CSC1(C)C | 46%
COc1ccc(C[C@H](NC(=O)c2cccc(N)c2Cl)[C@H](O)C(=O)N2CCC(C)(C)[C@H]2C(=O)NCc2c(C)cccc2C)cc1 | 63%
